Entry source: patent US20230219986A1

Target: Ba/F3 De119/T790M/C797S EGFR triple mutant cell line (Homo sapiens, UniProt P00533, T790M/C797S, cells depend on it, form not given)
Sequence (P00533 with tags, fused parts or gaps DEL746-750/T790M/C797S, form open): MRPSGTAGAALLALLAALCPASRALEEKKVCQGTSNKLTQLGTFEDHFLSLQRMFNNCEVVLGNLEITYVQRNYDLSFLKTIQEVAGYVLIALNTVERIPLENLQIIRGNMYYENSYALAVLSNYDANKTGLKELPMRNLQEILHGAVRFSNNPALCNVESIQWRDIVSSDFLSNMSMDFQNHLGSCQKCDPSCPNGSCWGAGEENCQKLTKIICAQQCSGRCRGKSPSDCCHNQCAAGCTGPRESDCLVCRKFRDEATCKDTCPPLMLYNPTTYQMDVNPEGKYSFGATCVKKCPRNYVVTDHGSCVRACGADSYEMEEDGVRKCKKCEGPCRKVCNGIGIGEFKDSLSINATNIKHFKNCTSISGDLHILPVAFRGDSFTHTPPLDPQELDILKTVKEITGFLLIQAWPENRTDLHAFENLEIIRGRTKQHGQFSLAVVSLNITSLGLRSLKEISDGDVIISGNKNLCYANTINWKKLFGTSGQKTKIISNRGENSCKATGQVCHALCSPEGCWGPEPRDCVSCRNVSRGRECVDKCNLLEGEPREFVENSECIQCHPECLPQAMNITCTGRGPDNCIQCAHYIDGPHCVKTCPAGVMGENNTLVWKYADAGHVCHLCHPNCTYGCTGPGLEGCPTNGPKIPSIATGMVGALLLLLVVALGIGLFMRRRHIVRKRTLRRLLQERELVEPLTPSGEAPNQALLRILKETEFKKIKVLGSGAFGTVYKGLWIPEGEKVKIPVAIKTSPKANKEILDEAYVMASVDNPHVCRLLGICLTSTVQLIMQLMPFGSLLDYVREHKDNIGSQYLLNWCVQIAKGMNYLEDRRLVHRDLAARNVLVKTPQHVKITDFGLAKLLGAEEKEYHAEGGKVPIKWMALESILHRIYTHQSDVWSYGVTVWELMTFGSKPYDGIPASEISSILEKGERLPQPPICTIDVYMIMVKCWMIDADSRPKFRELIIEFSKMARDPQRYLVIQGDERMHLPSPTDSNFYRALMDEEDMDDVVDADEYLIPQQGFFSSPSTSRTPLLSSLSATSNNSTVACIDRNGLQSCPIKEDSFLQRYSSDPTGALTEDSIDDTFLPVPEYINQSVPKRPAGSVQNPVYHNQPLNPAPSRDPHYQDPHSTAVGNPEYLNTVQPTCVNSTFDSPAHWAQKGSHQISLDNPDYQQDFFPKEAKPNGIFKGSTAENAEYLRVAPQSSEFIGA
Test: Cell proliferation inhibition experiment (CellTiter-Glo), Ba/F3 De119/T790M/C797S
Format: cell-based
Conditions: Ba/F3 Del19/T790M/C797S EGFR triple mutant cells, 72 hours, Cell Titer-Glo; read-out: Ba/F3 (Del19/T790M/C797S) IC50
Mark Satisfied only when GI50 stays strictly below 7 nM. Values equal to the cut-off are Not satisfied.

Example entries and their recorded answers appear below.
> print(dat)
                                   compound    group.label
1  COc1cc(C2=CCN(C)CC2)c(-c2cnn(C)c2)cc1Nc1ncc(Br)c(Nc2ccc3nccnc3c2P(C)(C)=O)n1  Not satisfied
2  COc1cc(N2CCOCC2)c(-c2cnoc2)cc1Nc1ncc(Br)c(Nc2ccc3nccnc3c2P(C)(C)=O)n1      Satisfied
3  COc1cc(N2CCC3(CC2)CN(C(C)C)CC(C)(C)O3)c(-c2cnn(C)c2)cc1Nc1ncc(Br)c(Nc2ccc3nccnc3c2P(C)(C)=O)n1  Not satisfied
4  COc1cc(N2CC(C)OC(C)C2)c(-c2cnn(C)c2)cc1Nc1ncc(Br)c(Nc2cc3c(cc2P(C)(C)=O)CC3)n1 (racemic) [compound 136]  Not satisfied
5  COCCN1CCN(c2cc(OC)c(Nc3ncc(Br)c(Nc4ccc5nccnc5c4P(C)(C)=O)n3)cc2-c2cnn(C)c2)CC1      Satisfied

# next compound below
Field: below-cutoff. Rule: recorded GI50 strictly less than 7 nM. Subject: COc1cc(N2CCC3(CC2)CCN(C(C)C)CC3)c(-c2cnn(C)c2)cc1Nc1ncc(Br)c(Nc2ccc3nccnc3c2P(C)(C)=O)n1
Satisfied
